Assay: in vitro
Details: rat, liver microsomes
recordedMetric: remaining at 0.5 h (%)

[[record]]
compound = "O=C(O)/C=N/[C@@H]1CCCN(c2ncnc3[nH]ncc23)C1"
readoutrelation = "="
value = 85

[[record]]
compound = "O=C(CO)N[C@@H]1CCCN(c2ncnc3[nH]ncc23)C1"
readoutrelation = "="
value = 11

[[record]]
compound = "O=C(N[C@@H]1CCCN(c2ncnc3[nH]ncc23)C1)C(O)Nc1cc(Cl)cc(Cl)c1 (stereo partly drawn)"
readoutrelation = "<"
value = 5


====

Assay: physchem
Details: octanol/water
recordedMetric: logD

[[record]]
recordsmiles = "O=C1[C@H](Nc2cc(F)cc(Cl)c2)CCCN1[C@@H]1CCCN(c2ncnc3[nH]ncc23)C1"
value = 4


====

Assay: Apparent permeability of compound across Caco-2/TC-7 monolayers in human Caco-2 cells by LC/MSMS analysis
Type: ADME, cell-based
recordedMetric: Papp (nm/s)

[[record]]
recordsmiles = "O=C1[C@H](Nc2cc(F)cc(Cl)c2)CCCN1[C@@H]1CCCN(c2ncnc3[nH]ccc23)C1"
recordedmetric = "Papp"
value = 280


====

Assay: in vitro
Details: human, liver microsomes
Below, each entry is listed with its recorded remaining at 0.5 h.
recordedMetric: remaining at 0.5 h (%)

[[record]]
compound = "O=C(O)/C=N/[C@@H]1CCCN(c2ncnc3[nH]ncc23)C1"
recordedmetric = "remaining at 0.5 h"
value = 13

[[record]]
compound = "O=C(CO)N[C@@H]1CCCN(c2ncnc3[nH]ncc23)C1"
recordedmetric = "remaining at 0.5 h"
value = 19

[[record]]
compound = "O=C(N[C@@H]1CCCN(c2ncnc3[nH]ncc23)C1)C(O)Nc1cc(Cl)cc(Cl)c1 (stereo partly drawn)"
recordedmetric = "remaining at 0.5 h"
value = 31

